- Tested on: U2OS
- PROTOCOL: Multiplex assay against U2OS
- Type: toxicity, cell-based
- TEST CONDITIONS: human, 24 h, 1 µM, compound concentration 1 uM, replicate 1
ATTRIBUTE MEASURED: Population Hoechst High Intensity Objects (%)
Hi! Could you send only the number? It should be in %, unit omitted.

{"columns": ["MOLECULE", "UNIT ABBREV", "MEASURED NUMBER"],
 "data": [
  ["CCCN1CCC[C@@H]2Cc3n[nH]cc3C[C@H]21.Cl [QUINPIROLE HYDROCHLORIDE]", "%", 1]
]}

Prompt line: Report Population Hoechst High Intensity Objects (%) on U2OS for this entry: COc1c(C)cc(NC(=O)c2nn(Cc3ccc(F)cc3)c3c2CN(C(=O)c2ccc[nH]2)C[C@]3(C)C(N)=O)cc1C
Response line: 5

Prompt line: For U2OS, give Population Hoechst High Intensity Objects (%) of the listed molecule: CN1CCN2c3ncccc3Cc3ccccc3C2C1 (configuration not stated)
Response line: 2

Prompt line: Retrieve Population Hoechst High Intensity Objects (%) on U2OS; query Oc1c(CN2CCN(c3ccccn3)CC2)cc(Cl)c2cccnc12
Response line: 1

Prompt line: // fetch Population Hoechst High Intensity Objects (%) for O=C1COc2nccc(-c3ccccc3F)c2CN1Cc1cc(C(F)(F)F)cc(C(F)(F)F)c1 ; system: U2OS
Response line: 3

Prompt line: Would you please give the reported Population Hoechst High Intensity Objects (%) of Cl.Clc1ccc2nsnc2c1NC1=NCCN1 [TIZANIDINE HYDROCHLORIDE] with U2OS?
Response line: 0

Prompt line: Check U2OS data and give Population Hoechst High Intensity Objects (%) for C[C@H](NC(=O)c1c(C(F)F)nn(C)c1Oc1cccc(C(F)(F)F)c1)c1ccc(C(=O)O)cc1 .
Response line: 2

Prompt line: Lab note: U2OS assay, enter Population Hoechst High Intensity Objects (%) for COc1ccc2c(c1)C(C(=O)N(Cc1ccc(N(C)C)cc1)c1ccc(C(C)C)cc1)CCC2.Cl (configuration not stated) here
Response line: 4

Prompt line: Please look at CC[C@H]1OC(=O)[C@H](C)[C@@H](O[C@H]2C[C@@](C)(OC)[C@@H](O)[C@H](C)O2)[C@H](C)[C@@H](O[C@@H]2O[C@H](C)C[C@H](N(C)C)[C@H]2O)[C@@]2(C)CC(C)=C(O2)[C@H](C)[C@@H](O)[C@]1(C)O and tell me its recorded Population Hoechst High Intensity Objects (%) on U2OS.
Response line: 4

Prompt line: Retrieve Population Hoechst High Intensity Objects (%) on U2OS; query COc1cc(C(=O)N(CCCc2ccccc2)Cc2ccc(CC(=O)O)cc2)cc(OC)c1C
Response line: 2

Prompt line: Would you please give the reported Population Hoechst High Intensity Objects (%) of C[C@@H]1C[C@H]2[C@@H]3CCC4=CC(=O)C=C[C@]4(C)[C@@]3(F)[C@@H](O)C[C@]2(C)[C@@]1(O)C(=O)CO with U2OS?
Response line: 2

Prompt line: Please report the measured Population Hoechst High Intensity Objects (%) for CSc1ccccc1N1CCN(CCCCCC(=O)NC2CCCc3ccccc32)CC1.Cl (configuration not stated) tested on U2OS.
Response line: 6

Prompt line: Check U2OS data and give Population Hoechst High Intensity Objects (%) for CCCC(CCC)C(=O)O .
Response line: 6

Prompt line: Quote U2OS Population Hoechst High Intensity Objects (%) for entry CN(C)CCCc1cc(C(=O)Nc2ccc(-c3ccncc3)cc2)ccc1O.Cl.Cl .
Response line: 2

Prompt line: Report Population Hoechst High Intensity Objects (%) under test system U2OS for CN1CCN(c2nc3cc(C(F)(F)F)ccc3n3cccc23)CC1.O=C(O)/C=C\C(=O)O.O=C(O)/C=C\C(=O)O .
Response line: 2

Prompt line: Using U2OS as the test system, report measured Population Hoechst High Intensity Objects (%) of O=S(=O)(c1ccccc1)c1cnc2c(N3CCNCC3)cccc2c1 [INTEPIRDINE] .
Response line: 2

Prompt line: Recall the reported Population Hoechst High Intensity Objects (%) of O=C(O)Cc1ccccc1Nc1c(Cl)cccc1Cl when tested on U2OS.
Response line: 4
